The values you see were collected from patent US9745328B2.

# target-under-test: human FLAP (Homo sapiens (Human), UniProt P20292)
# Sequence (P20292 whole entry): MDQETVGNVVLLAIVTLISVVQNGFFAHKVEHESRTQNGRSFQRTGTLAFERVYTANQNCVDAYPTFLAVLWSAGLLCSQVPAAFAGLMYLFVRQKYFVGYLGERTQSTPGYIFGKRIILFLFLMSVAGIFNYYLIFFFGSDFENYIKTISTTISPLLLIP
# assay-summary: FLAP binding assay (HTRF format)
# reported-conditions: Table 6 (additional runs), human FLAP wild type
Where a name gives a salt, the structure may show the parent alone.
endpoint-name: Ki
State the value with its unit after it.

Required: Ki, one value per molecule below.
1. C[C@@H](O)CNS(=O)(=O)c1ccccc1-c1ccc(-c2cnc(N)cn2)c(F)c1 [Example 97]
2. Nc1cnc(-c2ccc(-c3ccccc3S(=O)(=O)N3CCC(CCO)CC3)cc2F)cn1 [Example 69]
3. Nc1cnc(-c2ccc(-c3ccccc3S(=O)(=O)N3CCN(c4cnccn4)CC3)cc2F)cn1 [Example 176]

Result ::
["6600 pM", "900 pM", "500 pM"]

# map each molecule to its Ki
1. Nc1cnc(-c2ccc(-c3ccccc3S(=O)(=O)N3CC(F)(F)C3)cc2F)cn1 [Example 52]
2. Nc1ncc(-c2ccc(-c3ccccc3S(=O)(=O)N3CC(O)C3)cc2F)cn1 [Example 265, trifluoroacetic acid salt]
3. CNS(=O)(=O)c1cc(C(F)(F)F)ccc1-c1ccc(-c2cnc(N)cn2)c(F)c1 [Example 208]
4. CCC(C)(C)NS(=O)(=O)c1ccccc1-c1ccc(-c2ccc(N)nc2)c(F)c1 [Example 349]

Result ::
1: 3700 pM; 2: 35500 pM; 3: 400 pM; 4: 900 pM

Query :: Given the entry C[C@@H](NS(=O)(=O)c1ccccc1-c1ccc(-c2cnc(N)cn2)c(F)c1)C(F)(F)F [Example 20] , report its measured Ki.
Result :: 900 pM
